# ASSAY: protein stability index of a GFP-peptide fusion (GPS, HEK-293T) (PSI 1-6); higher = more stable;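 further: 24-mer peptide tiles fused after GFP, lentivirally expressed, FACS-sorted into six equal bins by GFP/DsRed ratio, decoded by Illumina sequencing, PSI is the read-weighted mean bin number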
# CONDITION_DETAILS: treatment: MLN4924 1 uM, 8 h; c terminus: a fixed tail appended
Response key: true means protein stability index >= 4; false means protein stability index < 4.

| ORDERED_RESIDUES | CAT |
| --- | --- |
| RAGGGGGGDYGLVTAGCGFGKDFR [PPTC7] | false |
| GFTKEQQRLGIPKDPRQWTETHVR [ETS1] | false |
| CVSRNSHLTSVTSESEQEFLYKTA [CD207] | false |
| QSFIIPLERYVASLMPLQKSISPW [DENND6A] | false |
| VFDAEGYVKPQSCIDIVIRHVAPI [MOSPD3] | false |
| LQELLTHDTKDQSPSRAPGLRQRA [HMOX1] | true |
| CAIASGSELSESAFGYFITACAVI [SLC29A1] | false |
| SLRDKVLQLQKGSDTEAQCEVMQE [INTS3] | true |
| AFQNDVYEWARDHRAHHKFSETHA [SCD] | false |
| LAHMIAECKKLFQVPEEMSRCRNS [DLC1] | false |
| SDKIGSTIDDTISKFRRKDREDSP [CLINT1] | true |
| MAATCEISNIFSNYFSAMYSSEDS [ELF3] | false |
| ASMAPAAALPPVPSPPAAPSVADN [SERTAD1] | true |
| GGAEMRTQHWPIRLDGQQEPQPFV [MYORG] | false |
| KQTGIVFGSFLLLLFSLTQFSVVS [RTN1] | false |
| FLLSQQTDLPECEQSSARQKASLL [TCF25] | false |
| RILLRMTLGREVMSPLQAMSSYTV [NLN] | false |
| GLSLCQFQNFSLHDPLYGKLFSTY [LPCAT4] | false |
| VETSAKNAININELFIEISRRIPS [RAB22A] | false |
| GTSDYDDVLSCEYYSPILDQWTPI [KLHL13] | false |
| RLIRELAEFEKLSDQVKISEEALR [SAT2] | false |
| GHHQGMPGYLPGAMPPYGQGPPMV [ZNF207] | false |
| RPNLETYYERVLKRKTFNKVLGHV [GDAP1] | false |
| GVDHTKMSLHGASGGHERSRDRRR [BTBD10] | true |
| LQNFLLHGTKNVTNSSSLRLPRQN [WSB1] | false |
| VGGGFGGGFGGGDGGLLSGNEKIT [KRT15] | true |
| RRFIQSCPIIRIPNRFLRGHRPPP [KLHDC10] | false |
| SARIGQNCSIGPNVSLGPGVVVED [GMPPB] | true |
| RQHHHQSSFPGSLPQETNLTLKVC | false |
| SSSTPLEDEEPQEPNRLETGEAGE [RTN2] | true |
| HVSYRELGACVRTAVAQGGWRSLW [SLC25A39] | false |
| DAQLLPHHSLQAHFRPRFHPLPTV [TMEM192] | false |
| PFIVTLEGNALQGPILQKDYVQLE [ZNF449] | false |
| EKDERQRTTKPMAQRSAHCSRPSG [CSNK1G1] | true |
| YECNHCGKGFRHSSSLAQHQRKHA [ZNF8] | true |
| LEDAAGGDSASEEKSGSAEPFVLP [FBXO34] | true |
| LPAAEFHGLWDSLVYDVEVKSHLL [TRIP13] | false |
| PEEPLNGESYESCCPTSREAAVEA [FEM1A] | true |
| ELERQRRLLGSVQQDLERSLQDAS [PBXIP1] | true |
| DSEQNGQVTCSILAYLPFKLEKSI [PCDHGA10] | false |
| TSCLKKREEMKLKECVSILPRKES [TNFSF13B] | true |
| EEVSSTVHIETFTTRHGEVGSALH [C10orf62] | true |
| GGEEEDEDENIEVVYSKAASVPKV [EIF5] | true |
| SLPASSYSQDPVYANGGLNYSYRG [NOL4L] | false |
| TEQFTAMRDLYMKNGQGFALVYSI [RAP1B] | false |
| GLLSLLLPETLNSPLLETFSDLQV [SLC22A15] | false |
| ILTATVDNANILLQIDNARLAADD [KRT17] | false |
| TAIKSIEFARKGSCFLINTADRII [RBBP5] | false |
| EIIRVILKLYEQWKNFDERKEMAT [CCNC] | false |
| MAEHRSMDGRMEAATRGGSHLQAA [SCNN1D] | true |
